The reported numbers originate from patent US20040266774A1.

# tested on: 5-HT2c binding site (Rattus norvegicus)
# Construct: ability to displace [^3H]-mesulergine in the rat prefrontal cortex; from tissue; host or cells: rat prefrontal cortex membrane suspension
# Sequence (P08909 33-460): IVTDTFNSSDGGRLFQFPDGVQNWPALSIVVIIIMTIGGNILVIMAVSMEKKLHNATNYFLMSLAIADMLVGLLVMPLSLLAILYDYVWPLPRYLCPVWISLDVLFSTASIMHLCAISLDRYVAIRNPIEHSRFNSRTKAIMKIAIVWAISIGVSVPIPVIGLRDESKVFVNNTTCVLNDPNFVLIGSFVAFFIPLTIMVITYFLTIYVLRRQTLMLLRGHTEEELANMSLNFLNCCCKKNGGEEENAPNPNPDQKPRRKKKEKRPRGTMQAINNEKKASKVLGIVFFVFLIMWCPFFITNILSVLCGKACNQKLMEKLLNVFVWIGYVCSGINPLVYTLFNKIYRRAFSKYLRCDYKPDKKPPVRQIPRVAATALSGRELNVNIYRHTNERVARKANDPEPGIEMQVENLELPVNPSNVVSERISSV
# measurement notes: [3H]-mesulergine binding
# protocol conditions: displacement of [3H]-mesulergine (1 nM) in rat prefrontal cortex membranes; test drugs 10^-6 M; 30 nM spiperone present; 37° C., 30 minutes
recorded endpoint: Inhibition (%)
Field: numeric (%). Do not append units.

Field Inhibition (%) (5-HT2c binding site (Rattus norvegicus)), entry "O=C(Nc1cccc(-c2ccnnc2)c1)c1cccc2c1Cc1ccccc1-2" : 64

Field Inhibition (%) (5-HT2c binding site (Rattus norvegicus)), entry "O=C(Nc1cccc(-c2cncnc2)c1)c1cccc2c1Cc1ccccc1-2" : 92

Field Inhibition (%) (5-HT2c binding site (Rattus norvegicus)), entry Cn1ccc2cc(NC(=O)Nc3cccnc3)ccc21 [(1), reference compound] : 21

Field Inhibition (%) (5-HT2c binding site (Rattus norvegicus)), entry "O=C(Nc1cccc(-c2cccnc2)c1)c1cccc2c1Cc1ccccc1-2" : 74
